System: Li. monocytogenes DPC 6893
Assay info: Well diffusion assay, spectrum of bacteriocin activity
Type: cell-based
Experimental setup: 50 μl filtered supernatant of E. coli Tuner (DE3) transformants encoding the pediocin PA-1 leader, 7 mm wells, triplicate
Please provide measured radius of the zone of inhibition for the entries that follow.

In: So what's the measured radius of the zone of inhibition for this one? –KYYGNGVSCTKKHGCKVNWGQAFTCSVNRFANFGH–G————-NC— (bicyclic or more) [Hordeiocin (Hrd), novel pediocin-like class IIa bacteriocin encoded by L. hordei DSM 19519, heterologously expressed]
Out: 2 ± 0 millimeters

In: I am curious: what radius of the zone of inhibition value has been reported for –KYYGNGVYCG-KHKCRVDWGQAWGCSVNRWGAAVGTGGKATIGHC— (bicyclic or more) [Ruminicin (Rum), novel pediocin-like class IIa bacteriocin encoded by L. ruminis DSM 20403, heterologously expressed] ?
Out: 1 ± 0 millimeters

In: I have this substance here, –KYYGNGVHCG-KKTCYVDWGQATASIGKIIVNGWTQHGPWAHR———- (disulfide) [Penocin A (PenA), previously characterized class IIa bacteriocin, here encoded by P. pentosaceus DSM 20336, heterologously expressed] , and I need its recorded radius of the zone of inhibition.
Out: 0.67 ± 0.47 millimeters

In: Any idea what radius of the zone of inhibition was measured for SRYYGNGITCG-KHKCTVNWGQAWTCGVNRLANFGH–G————–NC— (bicyclic or more) [Agilicin (Agl), novel pediocin-like class IIa bacteriocin encoded by L. agilis DSM 20509, heterologously expressed] ?
Out: 2 ± 0 millimeters

----------
System: L. mali DSM 20444
Assay info: Well diffusion assay, spectrum of bacteriocin activity
Assay type: cell-based
Experimental setup: 50 μl filtered supernatant of E. coli Tuner (DE3) transformants encoding the pediocin PA-1 leader, 7 mm wells, triplicate
Give measured radius of the zone of inhibition for each item. Keep answers brief.
Provide the reading as a plain figure in millimeters.

In: Name the reported radius of the zone of inhibition value associated with the substance –KYYGNGVSCTKKHGCKVNWGQAFTCSVNRFANFGH–G————-NC— (bicyclic or more) [Hordeiocin (Hrd), novel pediocin-like class IIa bacteriocin encoded by L. hordei DSM 19519, heterologously expressed]
Out: 4.33

In: Would you kindly share the measured radius of the zone of inhibition for –KYYGNGVSCG-KHTCKVNWGQAWNESVNRWGNSWVNGLTGLRQH— (disulfide) [Futcin (Fut), novel pediocin-like class IIa bacteriocin encoded by L. futsaii JCM 17355, heterologously expressed] ?
Out: 2.17

In: Query: radius of the zone of inhibition; subject: –KYYGNGVYCG-KHKCRVDWGQAWGCSVNRWGAAVGTGGKATIGHC— (bicyclic or more) [Ruminicin (Rum), novel pediocin-like class IIa bacteriocin encoded by L. ruminis DSM 20403, heterologously expressed]
Out: 2

In: Report radius of the zone of inhibition for –KYYGNGVSCS-KHSCSVDWGKALTCTINNGAMAWTTGGHQGNHKC—- (bicyclic or more) [Rennicin A (RenA), novel pediocin-like class IIa bacteriocin encoded by L. rennini DSM 20253, heterologously expressed] please.
Out: 1

----------
Kindly supply the reported radius of the zone of inhibition values for the records listed here.
Test system: Li. monocytogenes WSL 1416
Assay info: Well diffusion assay, spectrum of bacteriocin activity
Format: cell-based
Experimental setup: 50 μl filtered supernatant of E. coli Tuner (DE3) transformants encoding the pediocin PA-1 leader, 7 mm wells, triplicate
Method: Bacteriocin activity was determined using well diffusion assays (WDAs). For Tuner^TM (DE3) E. coli transformants both the cell supernatant and the cell lysates were analyzed for antimicrobial activity, whilst only the supernatants were analyzed for L. paracasei NFBC338 cells. […] The spectrum of activity was determined using WDAs against 32 indicator strains for bacteriocins produced by the E. coli transformants encoding the pediocin leader (Table 2). […]
No end group written: not given here.
The reply should contain only the number, in millimeters.

In: What radius of the zone of inhibition appears in the records for this substance with Li. monocytogenes WSL 1416? –KYYGNGVSCS-KHSCSVDWGKALTCTINNGAMAWTTGGHQGNHKC—- (bicyclic or more) [Rennicin A (RenA), novel pediocin-like class IIa bacteriocin encoded by L. rennini DSM 20253, heterologously expressed]
Out: 2.67

In: Observed radius of the zone of inhibition on Li. monocytogenes WSL 1416 for –KYYGNGVTCG-KHSCSVDWGKATTCIINNGAMAWATGGHQGNHKC—– (bicyclic or more) (KYYGNGVTCGKHSCSVDWGKATTCIINNGAMAWATGGHQGNHKC; not fully specified (bridges); cysteine pairing not given here; UniProt P29430 19-62, looked up) [Pediocin PA-1 (PedA), original class IIa bacteriocin of P. acidilactici LMG 2351, used as a control; heterologously expressed, reference compound] , please.
Out: 3.33

In: // fetch Li. monocytogenes WSL 1416 radius of the zone of inhibition for SRYYGNGITCG-KHKCTVNWGQAWTCGVNRLANFGH–G————–NC— (bicyclic or more) [Agilicin (Agl), novel pediocin-like class IIa bacteriocin encoded by L. agilis DSM 20509, heterologously expressed]
Out: 2

In: Requested read-out radius of the zone of inhibition, target or system Li. monocytogenes WSL 1416, entry –KYYGNGLYCG-KHSCSVDWGKATTCIINNGAMAWATGGHQGTHKC—— (bicyclic or more) [Pediocin 20336a (Ped20336), novel pediocin-like class IIa bacteriocin encoded by P. pentosaceus DSM 20336, heterologously expressed]
Out: 3.33

In: Lab note: need radius of the zone of inhibition with Li. monocytogenes WSL 1416 for entry –KYYGNGVSCTKKHGCKVNWGQAFTCSVNRFANFGH–G————-NC— (bicyclic or more) [Hordeiocin (Hrd), novel pediocin-like class IIa bacteriocin encoded by L. hordei DSM 19519, heterologously expressed] , please look it up.
Out: 2

In: Form entry - test system: Li. monocytogenes WSL 1416; read-out: radius of the zone of inhibition; substance: –KYYGNGVSCG-KHTCKVNWGQAWNESVNRWGNSWVNGLTGLRQH— (disulfide) [Futcin (Fut), novel pediocin-like class IIa bacteriocin encoded by L. futsaii JCM 17355, heterologously expressed]
Out: 1

In: Can you look up radius of the zone of inhibition on Li. monocytogenes WSL 1416 for –KYYGNGVYCG-KHKCRVDWGQAWGCSVNRWGAAVGTGGKATIGHC— (bicyclic or more) [Ruminicin (Rum), novel pediocin-like class IIa bacteriocin encoded by L. ruminis DSM 20403, heterologously expressed] ?
Out: 1

In: Li. monocytogenes WSL 1416 / radius of the zone of inhibition / –KYYGNGVHCG-KKTCYVDWGQATASIGKIIVNGWTQHGPWAHR———- (disulfide) [Penocin A (PenA), previously characterized class IIa bacteriocin, here encoded by P. pentosaceus DSM 20336, heterologously expressed] : value?
Out: 0.67

----------
Tested on: L. mali DSM 20444
Assay info: Well diffusion assay, spectrum of bacteriocin activity
Type: cell-based
Experimental setup: 50 μl filtered supernatant of E. coli Tuner (DE3) transformants encoding the pediocin PA-1 leader, 7 mm wells, triplicate
Kindly state radius of the zone of inhibition for each of the entries shown.
Answer with a number only, understood to be in millimeters.

In: Which radius of the zone of inhibition value is on record for –KYYGNGLYCG-KHSCSVDWGKATTCIINNGAMAWATGGHQGTHKC—— (bicyclic or more) [Pediocin 20336a (Ped20336), novel pediocin-like class IIa bacteriocin encoded by P. pentosaceus DSM 20336, heterologously expressed] ?
Out: 6.33

In: Looking for the measured radius of the zone of inhibition of —-KYYGNGLHIPKHGKPYINWGQAIQSIGKISYHGWVNGITSGAAGVGRH [Acidicin (Acd), novel pediocin-like class IIa bacteriocin encoded by L. acidipiscis DSM 15836, heterologously expressed] , can you help?
Out: 1.50

In: Any idea what its radius of the zone of inhibition is? The substance is SRYYGNGITCG-KHKCTVNWGQAWTCGVNRLANFGH–G————–NC— (bicyclic or more) [Agilicin (Agl), novel pediocin-like class IIa bacteriocin encoded by L. agilis DSM 20509, heterologously expressed]
Out: 4.50

In: Reported radius of the zone of inhibition for –KYYGNGVHCG-KKTCYVDWGQATASIGKIIVNGWTQHGPWAHR———- (disulfide) [Penocin A (PenA), previously characterized class IIa bacteriocin, here encoded by P. pentosaceus DSM 20336, heterologously expressed] : what is it?
Out: 1.50

----------
System: L. innocua DPC3572
Assay info: Bacteriocin activity (BU/ml), dilution series in well diffusion assay
Assay type: cell-based, Listeria innocua
Experimental setup: produced by L. paracasei NFBC338, neutralized cell free supernatant; inverse of the highest dilution of bacterial supernatant showing activity in a well diffusion assay
Property label: Bacteriocin Activity (BU/ml) vs. L. innocua DPC3572

Substance	Test target	Value
–KYYGNGVSCS-KHSCSVDWGKALTCTINNGAMAWTTGGHQGNHKC—- (bicyclic or more) [Rennicin A (RenA), novel pediocin-like class IIa bacteriocin encoded by L. rennini DSM 20253, heterologously expressed]	L. innocua DPC3572	+ (+ = 0 – 160 BU/ml)
–KYYGNGLYCG-KHSCSVDWGKATTCIINNGAMAWATGGHQGTHKC—— (bicyclic or more) [Pediocin 20336a (Ped20336), novel pediocin-like class IIa bacteriocin encoded by P. pentosaceus DSM 20336, heterologously expressed]	L. innocua DPC3572	+ (+ = 0 – 160 BU/ml)
–KYYGNGVSCG-KHSCSVDWGKATTCTINNSAMAWATSGHQGNHKC—- (bicyclic or more) [Rennicin B (RenB), novel pediocin-like class IIa bacteriocin encoded by L. rennini DSM 20253, heterologously expressed]	L. innocua DPC3572	+ (+ = 0 – 160 BU/ml)

The values you see were collected from paper PMC6036575.
